Data origin, for the record: patent US12528805B2

Assay: Thermodynamic solubility study (HPLC of mother liquors)
Format: physicochemical
Settings: organic solvent or mixture, thermodynamic from solid; 2-propanol:heptane 90:10 v/v; 5° C.
Procedure: To obtain accurate solubility and residual solid form data for amorphous Compound I dihydrochloride, thermodynamic solubility studies were carried out on amorphous input material in selected solvent systems at 50° C. and 5° C. (Table 6).
Counter-ions that a name gives are not always drawn.
endpoint: solubility thermodynamic at 23 h

Exam item: Any idea what solubility thermodynamic at 23 h was measured for CC[C@H]1CN2CCc3cc(OC)c(OC)cc3[C@@H]2C[C@@H]1C[C@H]1NCCc2cc(OC)c(OC)cc21 [Amorphous Compound I dihydrochloride] ?
Marked response: 10 to 40 mg/mL

* * *

Assay: Solubility screening by solvent addition technique (approximate solubility)
Assay type: physicochemical
Details: aqueous with cosolvent or surfactant or cyclodextrin, thermodynamic from solid, methanol:water 50:50 v/v, stirred at 50° C.
Where a name gives a salt, the structure may show the parent alone.
endpoint: solubility

Exam item: Any idea what solubility was measured for CC[C@H]1CN2CCc3cc(OC)c(OC)cc3[C@@H]2C[C@@H]1C[C@H]1NCCc2cc(OC)c(OC)cc21 [Amorphous Compound I dihydrochloride] ?
Marked response: > 200 mg/mL

* * *

Experiment: Thermodynamic solubility study (HPLC of mother liquors)
Assay type: physicochemical
Conditions: organic solvent or mixture, thermodynamic from solid; ethanol:heptane 60:40 v/v; 50° C.
Structures can show the parent of a compound that is named as a salt.
endpoint: solubility thermodynamic at 23 h

Exam item: Any idea what solubility thermodynamic at 23 h was measured for CC[C@H]1CN2CCc3cc(OC)c(OC)cc3[C@@H]2C[C@@H]1C[C@H]1NCCc2cc(OC)c(OC)cc21 [Amorphous Compound I dihydrochloride] ?
Marked response: 40 to 115 mg/mL

* * *

Assay: Solubility screening by solvent addition technique (approximate solubility)
Format: physicochemical
Details: organic solvent or mixture, thermodynamic from solid, anisole, stirred at 50° C.
Where a name gives a salt, the structure may show the parent alone.
endpoint: solubility

Exam item: Any idea what solubility was measured for CC[C@H]1CN2CCc3cc(OC)c(OC)cc3[C@@H]2C[C@@H]1C[C@H]1NCCc2cc(OC)c(OC)cc21 [Amorphous Compound I dihydrochloride] ?
Marked response: < 10000 µg/mL

* * *

Assay: Thermodynamic solubility study (HPLC of mother liquors)
Assay type: physicochemical
Conditions: organic solvent or mixture, thermodynamic from solid; 2-propanol; 50° C.; experiment remained unsaturated
Structures can show the parent of a compound that is named as a salt.
endpoint: solubility thermodynamic at 23 h

Exam item: Any idea what solubility thermodynamic at 23 h was measured for CC[C@H]1CN2CCc3cc(OC)c(OC)cc3[C@@H]2C[C@@H]1C[C@H]1NCCc2cc(OC)c(OC)cc21 [Amorphous Compound I dihydrochloride] ?
Marked response: > 215 mg/mL

* * *

Assay: Thermodynamic solubility study (HPLC of mother liquors)
Assay type: physicochemical
Settings: organic solvent or mixture, thermodynamic from solid; 2-propanol; 5° C.
Structures can show the parent of a compound that is named as a salt.
endpoint: solubility thermodynamic at 23 h

Exam item: Any idea what solubility thermodynamic at 23 h was measured for CC[C@H]1CN2CCc3cc(OC)c(OC)cc3[C@@H]2C[C@@H]1C[C@H]1NCCc2cc(OC)c(OC)cc21 [Amorphous Compound I dihydrochloride] ?
Marked response: 10 to 40 mg/mL

* * *

Assay: Thermodynamic solubility study (HPLC of mother liquors)
Assay type: physicochemical
Settings: organic solvent or mixture, thermodynamic from solid; ethanol:heptane 80:20 v/v; 5° C.
Method: To obtain accurate solubility and residual solid form data for amorphous Compound I dihydrochloride, thermodynamic solubility studies were carried out on amorphous input material in selected solvent systems at 50° C. and 5° C. (Table 6).
Where a name gives a salt, the structure may show the parent alone.
endpoint: solubility thermodynamic at 23 h

Exam item: Any idea what solubility thermodynamic at 23 h was measured for CC[C@H]1CN2CCc3cc(OC)c(OC)cc3[C@@H]2C[C@@H]1C[C@H]1NCCc2cc(OC)c(OC)cc21 [Amorphous Compound I dihydrochloride] ?
Marked response: 10 to 40 mg/mL

* * *

Experiment: Solubility screening by solvent addition technique (approximate solubility)
Format: physicochemical
Conditions: organic solvent or mixture, thermodynamic from solid, THF, stirred at 50° C.
Structures can show the parent of a compound that is named as a salt.
endpoint: solubility

Exam item: Any idea what solubility was measured for CC[C@H]1CN2CCc3cc(OC)c(OC)cc3[C@@H]2C[C@@H]1C[C@H]1NCCc2cc(OC)c(OC)cc21 [Amorphous Compound I dihydrochloride] ?
Marked response: < 10000 µg/mL

* * *

Assay: Solubility screening by solvent addition technique (approximate solubility)
Assay type: physicochemical
Details: organic solvent or mixture, thermodynamic from solid, 2-methyl THF, stirred at 50° C.
Where a name gives a salt, the structure may show the parent alone.
endpoint: solubility

Exam item: Any idea what solubility was measured for CC[C@H]1CN2CCc3cc(OC)c(OC)cc3[C@@H]2C[C@@H]1C[C@H]1NCCc2cc(OC)c(OC)cc21 [Amorphous Compound I dihydrochloride] ?
Marked response: < 10000 µg/mL

* * *

Assay: Solubility screening by solvent addition technique (approximate solubility)
Assay type: physicochemical
Settings: organic solvent or mixture, thermodynamic from solid, methylisobutyl ketone, stirred at 50° C.
Structures can show the parent of a compound that is named as a salt.
endpoint: solubility

Exam item: Any idea what solubility was measured for CC[C@H]1CN2CCc3cc(OC)c(OC)cc3[C@@H]2C[C@@H]1C[C@H]1NCCc2cc(OC)c(OC)cc21 [Amorphous Compound I dihydrochloride] ?
Marked response: < 10000 µg/mL

* * *

Assay: Solubility screening by solvent addition technique (approximate solubility)
Type: physicochemical
Settings: organic solvent or mixture, thermodynamic from solid, ethanol:water 90:10 v/v, stirred at 50° C.
Structures can show the parent of a compound that is named as a salt.
endpoint: solubility

Exam item: Any idea what solubility was measured for CC[C@H]1CN2CCc3cc(OC)c(OC)cc3[C@@H]2C[C@@H]1C[C@H]1NCCc2cc(OC)c(OC)cc21 [Amorphous Compound I dihydrochloride] ?
Marked response: > 200 mg/mL

* * *

Assay: Solubility screening by solvent addition technique (approximate solubility)
Type: physicochemical
Conditions: organic solvent or mixture, thermodynamic from solid, ethanol, stirred at 50° C.
Counter-ions that a name gives are not always drawn.
endpoint: solubility

Exam item: Any idea what solubility was measured for CC[C@H]1CN2CCc3cc(OC)c(OC)cc3[C@@H]2C[C@@H]1C[C@H]1NCCc2cc(OC)c(OC)cc21 [Amorphous Compound I dihydrochloride] ?
Marked response: > 200 mg/mL

* * *

Assay: Thermodynamic solubility study (HPLC of mother liquors)
Format: physicochemical
Conditions: organic solvent or mixture, thermodynamic from solid; 2-propanol:water 95:5 v/v; 50° C.
Description: To obtain accurate solubility and residual solid form data for amorphous Compound I dihydrochloride, thermodynamic solubility studies were carried out on amorphous input material in selected solvent systems at 50° C. and 5° C. (Table 6).
Counter-ions that a name gives are not always drawn.
endpoint: solubility thermodynamic at 23 h

Exam item: Any idea what solubility thermodynamic at 23 h was measured for CC[C@H]1CN2CCc3cc(OC)c(OC)cc3[C@@H]2C[C@@H]1C[C@H]1NCCc2cc(OC)c(OC)cc21 [Amorphous Compound I dihydrochloride] ?
Marked response: 40 to 115 mg/mL

* * *

Assay: Solubility screening by solvent addition technique (approximate solubility)
Type: physicochemical
Details: aqueous with cosolvent or surfactant or cyclodextrin, thermodynamic from solid, acetone:water 50:50 v/v, stirred at 50° C.
Counter-ions that a name gives are not always drawn.
endpoint: solubility

Exam item: Any idea what solubility was measured for CC[C@H]1CN2CCc3cc(OC)c(OC)cc3[C@@H]2C[C@@H]1C[C@H]1NCCc2cc(OC)c(OC)cc21 [Amorphous Compound I dihydrochloride] ?
Marked response: > 200 mg/mL

* * *

Assay: Solubility screening by solvent addition technique (approximate solubility)
Type: physicochemical
Settings: organic solvent or mixture, thermodynamic from solid, methylethyl ketone, stirred at 50° C.
From the text: Approximate solubility values for amorphous Compound I dihydrochloride in 24 solvent systems was estimated by a solvent addition technique (Table 5). […]
Structures can show the parent of a compound that is named as a salt.
endpoint: solubility

Exam item: Any idea what solubility was measured for CC[C@H]1CN2CCc3cc(OC)c(OC)cc3[C@@H]2C[C@@H]1C[C@H]1NCCc2cc(OC)c(OC)cc21 [Amorphous Compound I dihydrochloride] ?
Marked response: < 10000 µg/mL

* * *

Test: Thermodynamic solubility study (HPLC of mother liquors)
Type: physicochemical
Conditions: organic solvent or mixture, thermodynamic from solid; ethanol; 5° C.
Description: To obtain accurate solubility and residual solid form data for amorphous Compound I dihydrochloride, thermodynamic solubility studies were carried out on amorphous input material in selected solvent systems at 50° C. and 5° C. (Table 6).
Where a name gives a salt, the structure may show the parent alone.
endpoint: solubility thermodynamic at 23 h

Exam item: Any idea what solubility thermodynamic at 23 h was measured for CC[C@H]1CN2CCc3cc(OC)c(OC)cc3[C@@H]2C[C@@H]1C[C@H]1NCCc2cc(OC)c(OC)cc21 [Amorphous Compound I dihydrochloride] ?
Marked response: 10 to 40 mg/mL
